All values here come from patent US5703072A.

# reported Ki; entries follow
assayTarget: human D4 receptor (D4.2 sub-type) (Homo sapiens, UniProt P21917, DEL265-296)
Construct: expressed in transfected cells; host or cells: HEK 298 (human embryonic kidney) cells (so in the source); homogenate of stably transfected cells
Sequence (P21917 with tags, fused parts or gaps DEL265-296): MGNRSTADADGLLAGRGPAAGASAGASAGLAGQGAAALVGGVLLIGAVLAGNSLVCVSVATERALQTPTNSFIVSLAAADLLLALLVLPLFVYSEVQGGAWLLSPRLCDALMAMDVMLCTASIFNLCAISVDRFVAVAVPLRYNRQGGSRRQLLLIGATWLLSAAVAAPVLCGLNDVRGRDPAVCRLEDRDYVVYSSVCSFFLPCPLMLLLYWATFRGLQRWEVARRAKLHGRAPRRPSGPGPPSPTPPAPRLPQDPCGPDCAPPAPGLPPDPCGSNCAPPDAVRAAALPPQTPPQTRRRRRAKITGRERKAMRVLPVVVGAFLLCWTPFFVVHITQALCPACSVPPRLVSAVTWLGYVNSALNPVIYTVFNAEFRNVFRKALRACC
assayNotes: D4 receptor binding: displacement of 3H-spiperone
testParameters: D4 affinity; 3H-spiperone displacement
Number first, unit second: that is the form wanted.

Previously resolved entries follow.
{"molecule": "Clc1ccc2c(c1)N=C(N1CCN3CCCCC3C1)c1ccccc1O2 (racemic)", "Ki": "15.7 nM"}
{"molecule": "Clc1ccc2c(c1)N=C(N1CCN3CCC[C@@H]3C1)c1ccccc1O2", "Ki": "18 nM"}
{"molecule": "Clc1ccc2c(c1)N=C(N1CCN3CCCC[C@H]3C1)c1ccccc1O2", "Ki": "1 nM"}
{"molecule": "Clc1ccc2c(c1)N=C(N1CCN3CCCC[C@@H]3C1)c1ccccc1O2", "Ki": "402 nM"}
{"molecule": "Clc1ccc2c(c1)N=C(N1CCN3CCC[C@H]3C1)c1ccccc1O2", "Ki": "1.2 nM"}
{"molecule": "Clc1ccc2c(c1)N=C(N1CCN3C[C@@H](OCc4ccccc4)C[C@H]3C1)c1ccccc1O2", "Ki": "24 nM"}

# context switch: different molecule, same Ki
Consider the molecule O[C@H]1C[C@H]2CN(C3=Nc4cc(Cl)ccc4Oc4ccccc43)CCN2C1 and give its measured Ki.
28 nM

###

assayTarget: human D2 receptor (short isoform) (Homo sapiens, UniProt P14416)
Construct: 3H-spiperone displacement
Sequence (P14416 with tags, fused parts or gaps DEL242-270): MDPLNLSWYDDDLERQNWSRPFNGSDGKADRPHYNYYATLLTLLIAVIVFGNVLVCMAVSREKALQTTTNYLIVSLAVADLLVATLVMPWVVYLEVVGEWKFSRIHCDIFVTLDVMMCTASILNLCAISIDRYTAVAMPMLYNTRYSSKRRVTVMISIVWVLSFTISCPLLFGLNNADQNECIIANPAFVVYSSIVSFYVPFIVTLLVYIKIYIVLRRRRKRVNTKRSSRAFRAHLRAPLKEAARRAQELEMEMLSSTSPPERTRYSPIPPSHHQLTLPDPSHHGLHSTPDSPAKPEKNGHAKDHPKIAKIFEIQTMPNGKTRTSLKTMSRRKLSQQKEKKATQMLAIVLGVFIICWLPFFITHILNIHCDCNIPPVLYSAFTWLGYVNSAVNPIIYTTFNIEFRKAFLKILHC
assayNotes: D2 receptor binding (displacement of 3H-spiperone) relative to D4: D2/D4 selectivity
testParameters: D2/D4 ratio
Rule: YES for D2/D4 not less than 20, NO for anything less.

These recorded examples may help you get a feel for the data.
{"molecule": "Clc1ccc2c(c1)N=C(N1CCN3CCC[C@H]3C1)c1ccccc1O2", "label": "YES"}
{"molecule": "Clc1ccc2c(c1)N=C(N1CCN3CCC[C@@H]3C1)c1ccccc1O2", "label": "YES"}
{"molecule": "Clc1ccc2c(c1)N=C(N1CCN3C[C@@H](OCc4ccccc4)C[C@H]3C1)c1ccccc1O2", "label": "YES"}
{"molecule": "Clc1ccc2c(c1)N=C(N1CCN3CCCC[C@H]3C1)c1ccccc1O2", "label": "YES"}

In plain terms: is recorded D2/D4 at least 20 for O[C@H]1C[C@H]2CN(C3=Nc4cc(Cl)ccc4Oc4ccccc43)CCN2C1 ?
NO

In plain terms: is recorded D2/D4 at least 20 for Clc1ccc2c(c1)N=C(N1CCN3CCCC[C@@H]3C1)c1ccccc1O2 ?
NO

In plain terms: is recorded D2/D4 at least 20 for Clc1ccc2c(c1)N=C(N1CCN3CCCCC3C1)c1ccccc1O2 (racemic) ?
NO
